All values here come from ChEMBL document CHEMBL4196220.

- SUBJECT OF TEST: Synaptic vesicular amine transporter (Homo sapiens, UniProt Q05940)
- Sequence (Q05940 whole entry): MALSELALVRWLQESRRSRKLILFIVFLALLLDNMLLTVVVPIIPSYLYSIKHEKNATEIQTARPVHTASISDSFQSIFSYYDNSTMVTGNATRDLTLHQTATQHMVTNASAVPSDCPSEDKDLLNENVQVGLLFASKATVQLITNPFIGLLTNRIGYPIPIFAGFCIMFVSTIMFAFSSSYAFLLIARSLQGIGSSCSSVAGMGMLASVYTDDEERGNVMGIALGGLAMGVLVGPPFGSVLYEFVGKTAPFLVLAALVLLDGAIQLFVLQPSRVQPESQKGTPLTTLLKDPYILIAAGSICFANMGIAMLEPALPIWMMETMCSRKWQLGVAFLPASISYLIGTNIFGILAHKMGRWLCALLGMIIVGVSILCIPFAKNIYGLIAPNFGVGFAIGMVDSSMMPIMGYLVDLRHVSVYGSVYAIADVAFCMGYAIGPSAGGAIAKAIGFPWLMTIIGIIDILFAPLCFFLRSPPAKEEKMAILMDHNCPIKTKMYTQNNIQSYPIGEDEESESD
- PROTOCOL DESCRIPTION: Displacement of [3H]reserpine from human VMAT2 expressed in HEK293 cell membranes incubated for 60 mins by scintillation counting method
Labelling: Ki reported below 400 nM becomes YES; at or above becomes NO.

Worked examples, 10 compounds total:
>  <COMPOUND>
CCOC(=O)[C@@H]1CN(CCn2c(=O)[nH]c3ccccc3c2=O)CC[C@@H]1c1ccc(-c2ccccc2)cc1 (racemic)

>  <CLASS NAME>
NO

$$$$
>  <COMPOUND>
CCOC(=O)[C@@H]1CN(CCn2c(=O)[nH]c3ccccc3c2=O)CC[C@@H]1c1ccccc1 (racemic)

>  <CLASS NAME>
YES

$$$$
>  <COMPOUND>
CCOC(=O)[C@@H]1CN(CCn2c(=O)[nH]c3ccccc3c2=O)CC[C@@H]1c1cccs1 (racemic)

>  <CLASS NAME>
NO

$$$$
>  <COMPOUND>
CCOC(=O)[C@@H]1CN(CCn2c(=O)[nH]c3ccccc3c2=O)CC[C@@H]1c1cccc(C(F)(F)F)c1 (racemic)

>  <CLASS NAME>
NO

$$$$
>  <COMPOUND>
O=C(c1ccc(F)cc1)C1CCN(CCn2c(=O)[nH]c3ccccc3c2=O)CC1

>  <CLASS NAME>
YES

$$$$
>  <COMPOUND>
CNC(C)Cc1ccccc1 (stereo unspecified)

>  <CLASS NAME>
NO

$$$$
>  <COMPOUND>
CCOC(=O)[C@@H]1CN(CCn2c(=O)[nH]c3ccccc3c2=O)CC[C@@H]1c1ccc(N(C)C)cc1 (racemic)

>  <CLASS NAME>
NO

$$$$
>  <COMPOUND>
CN1[C@@H](CC(=O)c2ccccc2)CCC[C@H]1C[C@H](O)c1ccccc1

>  <CLASS NAME>
NO

$$$$
>  <COMPOUND>
CCC1(O)CC2c3cc(OC)c(OC)cc3CCN2CC1CC(C)C (stereo unspecified)

>  <CLASS NAME>
YES

$$$$
>  <COMPOUND>
CCOC(=O)[C@@H]1CN(CCn2c(=O)[nH]c3ccccc3c2=O)CC[C@@H]1c1ccc(C)cc1 (racemic)

>  <CLASS NAME>
NO

$$$$

Now consider a different compound.
Inquiry: Is Ki strictly under 400 nM for the entry CCOC(=O)[C@@H]1CN(CCn2c(=O)[nH]c3ccccc3c2=O)CC[C@@H]1c1ccc(C(F)(F)F)cc1 (racemic) ?
Reply text: NO
